Organism: Homo sapiens
Assay: Tested for inhibitory activity against the production of prostaglandin E2 (PGE2) in human whole blood
Type: functional, organism-based
pIC50: −log10 of the molar value.
RECORDED_METRIC: pIC50

substance_smiles=CNc1nc2c(Cc3cccnc3)c(C)c(O)c(C)c2s1 recorded_metric=pIC50 reading="< 4.05"
substance_smiles=Cc1c(O)c(C)c2sc(NCc3ccc(S(N)(=O)=O)cc3)nc2c1C recorded_metric=pIC50 reading="< 4.00"
substance_smiles=CCNc1nc2c(C)c(C)c(O)c(Cc3cccnc3)c2s1 recorded_metric=pIC50 reading="< 4.00"
substance_smiles=CCNc1nc2c(Cc3cccnc3)c(C)c(O)c(C)c2s1 recorded_metric=pIC50 reading="< 4.04"
